biological target: PU.1 (IVT) (UniProt P17947 1-270); assay: protein-binding microarray (PBM); 20 mM HEPES pH 7.9, 100 mM NaCl, 1 mM DTT, 0.2 mg/mL BSA, 0.02% Triton X-100, 2% milk, 0.4 mg/mL salmon testes DNA; 1 h; temperature not stated; high values mean tight binding; conditions: dsDNA, one strand shown
Over roughly 3,700 sequences, “z-score” has its median near 4; the highest 2% begin near 8.4. The full list was thinned out, with the highest values kept by preference.
List of binding signal values.
Readout label: binding signal (z-score)

[[record]]
sequence_record = "GCCTAGCACACGAAGAGGAAGTAAAAGGCGTGCTAGGTCTTGATTCGCTTGACGCTGCTG"
assay_value = 6.54

[[record]]
sequence_record = "GCCTAGCACAAAAAGAGGAAGGGAGTAGAGTGCTAGGTCTTGATTCGCTTGACGCTGCTG"
assay_value = 4.77

[[record]]
sequence_record = "GCCTAGCACAAAAAGAGGAAGGGTGGCTGGTGCTAGGTCTTGATTCGCTTGACGCTGCTG"
assay_value = 4.91

[[record]]
sequence_record = "GCCTAGCACAGAAGAAGGAAGTGAAAGAAGTGCTAGGTCTTGATTCGCTTGACGCTGCTG"
assay_value = 4.5

[[record]]
sequence_record = "GCCTAGCACCGAAAGGGGATGTGCTAAACGTGCTAGGTCTTGATTCGCTTGACGCTGCTG"
assay_value = 1.8

[[record]]
sequence_record = "GCCTAGCACACAAAGGGGAAGTGCTAGGGGTGCTAGGTCTTGATTCGCTTGACGCTGCTG"
assay_value = 6.35

[[record]]
sequence_record = "GCCTAGCACCGAATGAGGAACTGATGCGGGTGCTAGGTCTTGATTCGCTTGACGCTGCTG"
assay_value = 5.03

[[record]]
sequence_record = "GCCTAGCACAAAAAAAGGAAGTGCTCAAGGTGCTAGGTCTTGATTCGCTTGACGCTGCTG"
assay_value = 6.42

[[record]]
sequence_record = "GCCTAGCACTATATAGGGAAGTGGGATTCGTGCTAGGTCTTGATTCGCTTGACGCTGCTG"
assay_value = 4.85

[[record]]
sequence_record = "GCCTAGCACGCAGAGAGGAAGTGTGAATGGTGCTAGGTCTTGATTCGCTTGACGCTGCTG"
assay_value = 3.72

